The measured values listed here are drawn from PubChem BioAssay (NCI).

Measured GI50 accompanies every entry in the list below.
Test system: TK-10 renal
Assay: NCI tumour cell line growth inhibition, 48 h

Answered examples (6):
{"compound": "O=[N+]([O-])/C=C\\c1ccc(Cl)c(Cl)c1", "GI50": "3.48 µM"}
{"compound": "CCOC(=O)/C=C(/C(=O)OCC)n1cc(Cl)c(=O)n(CC(=O)OCC)c1=O", "GI50": "11.5 µM"}
{"compound": "CC1=C(CCCNS(C)(=O)=O)C2=C(C)C3(CC3)[C@@](C)(O)C(=O)C2=C1", "GI50": "2.61 µM"}
{"compound": "Cc1cc(I)cc(CNCCCN2CCSCC2)c1O", "GI50": "14.2 µM"}
{"compound": "CN(C)CCNc1cc(-c2ccccc2)nc2ccccc12", "GI50": "6.94 µM"}
{"compound": "COC(=O)CCCCN=Cc1c(O)c(O)c(C(C)C)c2cc(C)c(-c3c(C)cc4c(C(C)C)c(O)c(O)c(C=NCCCCC(=O)OC)c4c3O)c(O)c12", "GI50": "1.05 µM"}

Lab note: measured GI50 of `COc1cc(OC)cc(-c2ccc(-c3ccc(C(=N)N)o3)o2)c1` was 13.4 µM

---

Test system: HOP-62 NSCLC
Assay: NCI tumour cell line growth inhibition, 48 h
experimental readout: TGI

Answered examples (3):
{"compound": "CC1(C)CC(/C=C2/OC(=O)c3ccccc32)=C(C#N)C(=O)O1", "TGI": "> 100 µM"}
{"compound": "O=C(CN1c2ccccc2Sc2ccccc21)N1CCNCC1", "TGI": "> 100 µM"}
{"compound": "COc1ccc(OC)c(NC(=O)C(=O)C(C(C)=O)c2nc3ccc(Cl)cc3[nH]c2=O)c1 (stereo not given)", "TGI": "> 50 µM"}

Lab note: measured TGI of `COc1ccc(CNc2cc(OC)c(OC)c(OC)c2)cc1` was > 71.5 µM

Lab note: measured TGI of `NC(C(F)(F)F)(C(F)(F)F)P(=O)(Cc1ccccc1)Cc1ccccc1` was > 100 µM

---

System: U251 CNS
Result category, one only: active, inactive

{"compound": "CCCCC(=O)OCC1OC(n2cnc3c(=S)nc[nH]c32)C(OC(=O)CCCC)C1OC(=O)CCCC (stereo unspecified)", "label value": "inactive"}
{"compound": "O=C1/C(=C/c2ccc(Cl)cc2Cl)N=C(c2ccccc2)N1Cc1ccco1", "label value": "inactive"}
{"compound": "Cc1cc(I)cc(CNCCCN2CCSCC2)c1O", "label value": "inactive"}
{"compound": "Cc1ccc(CS/C(=C\\c2ccc([N+](=O)[O-])cc2)C(=O)c2ccc(F)cc2)cc1", "label value": "inactive"}
{"compound": "O=C(c1ccco1)c1nc2ccc(C(F)(F)F)cc2[n+]([O-])c1C(F)(F)F", "label value": "inactive"}

Q) I would be grateful if you could indicate the recorded call for `CN1CCN(Cc2ccc(NC(=O)c3cncc(C#Cc4cnc(N)c5ccc(C#N)cc45)c3)cc2C(F)(F)F)CC1` .
A) active

Q) I would be grateful if you could indicate the recorded call for O=C(NCCOCCOCCNc1cccc2c1C(=O)N(C1CCCNC1=O)C2=O)c1cc2c(o1)C(=O)c1ccccc1C2=O (stereo unspecified) .
A) inactive

Q) I would be grateful if you could indicate the recorded call for `CCc1c(Oc2ccc(C(C)=O)cc2)c2ccccc2[nH]c1=O` .
A) inactive

Q) I would be grateful if you could indicate the recorded call for `CSc1cc(N=Nc2nc3ccccc3s2)c2ccccc2c1O` .
A) inactive

Q) I would be grateful if you could indicate the recorded call for `O=C1/C(=C/c2ccc(Br)cc2)C=C(c2ccccc2)N1CCc1ccccc1` .
A) inactive

Q) I would be grateful if you could indicate the recorded call for `Cc1ccc(S(=O)(=O)N(CCOc2ccc(/C(N)=N/Cl)cc2)CCOc2ccc(/C(N)=N\Cl)cc2)cc1` .
A) inactive

---

Tested on: UO-31 renal
Experiment: NCI tumour cell line growth inhibition, 48 h
Measured TGI accompanies every entry in the list below.

Answered examples (6):
{"compound": "CN(C)/N=N/c1nc2c(c(=O)n(C)c(=O)n2C)n1C", "target or system": "UO-31 renal", "value": "> 100 µM"}
{"compound": "O=C(O)CCCCC(CCSCc1ccccc1)SCc1ccccc1 (stereo not drawn)", "target or system": "UO-31 renal", "value": "> 100 µM"}
{"compound": "O=C(O)CC/C(=N\\Nc1nsc2ccccc12)c1ccccc1", "target or system": "UO-31 renal", "value": "> 100 µM"}
{"compound": "CC1(C)CC(/C=C2/OC(=O)c3ccccc32)=C(C#N)C(=O)O1", "target or system": "UO-31 renal", "value": "> 100 µM"}
{"compound": "C=C1CC(COc2cc(=O)oc3ccccc23)(c2ccccc2)OC1=O (stereo not drawn)", "target or system": "UO-31 renal", "value": "16 µM"}
{"compound": "CN(C)CCCOC(=O)C(c1ccccc1)C1(O)CCSCC1 (stereo not drawn)", "target or system": "UO-31 renal", "value": "> 100 µM"}

Record CCOC(=O)NC(=O)c1cn(C2OC(COC(=O)CCCCCCCCC(=O)OCC3OC(n4cc(C(=O)NC(=O)OCC)c(=O)[nH]c4=O)C(O)C3O)C(O)C2O)c(=O)[nH]c1=O (stereo not drawn) has UO-31 renal TGI equal to > 100 µM

Record `OCCCCCNc1c2ccccc2nc2ccccc12` has UO-31 renal TGI equal to 10 µM

---

Test system: XF 498 CNS
Experiment: NCI tumour cell line growth inhibition, 48 h
experimental readout: TGI

Answered examples (4):
{"compound": "O=C1OCc2c1cc1ccc(O)c(OC3OC(CO)C(O)C(O)C3O)c1c2-c1ccc2c(c1)OCO2 (stereo not given)", "TGI": "> 100 µM"}
{"compound": "CC(=O)Nc1ccccc1Sc1ccccc1", "TGI": "> 100 µM"}
{"compound": "COc1ccc2ccc3c(c2c1)CN1CCc2cc(OC)c(OC)cc2C1C3 (stereo not given)", "TGI": "> 100 µM"}
{"compound": "N=C1CSC2=NC3=C(CCC/C3=C\\c3ccccc3)C(c3ccccc3)N12 (stereo not given)", "TGI": "35.1 µM"}

Record `COC(=O)C(CCC#N)(CCC#N)C(=O)OC` has XF 498 CNS TGI equal to > 100 µM

---

Tested on: HT29 colon
Assay: NCI tumour cell line growth inhibition, 48 h
experimental readout: TGI

Answered examples (8):
{"compound": "O=C(O)c1cc2c(cc1CC(Cc1ccc3c(c1)CCC3)C(=O)O)CCC2 (centres undefined)", "value": "> 100 µM"}
{"compound": "CCN(CC)c1c(C(=O)/C=C/c2ccccc2)c(-c2ccccc2)nn(C)c1=O", "value": "> 100 µM"}
{"compound": "CCOc1ccc2c(c1)[n+]([O-])c(S(=O)(=O)c1ccc(C)cc1)c(N)[n+]2[O-]", "value": "> 100 µM"}
{"compound": "CC(C)(N=NC(C)(C)C(=O)NCCO)C(=O)NCCO", "value": "> 100 µM"}
{"compound": "O=C(O)CC/C(=N\\Nc1nsc2ccccc12)c1ccccc1", "value": "> 100 µM"}
{"compound": "N#Cc1ccc(C#Cc2ccccc2C#CCCCCO)cc1", "value": "> 100 µM"}
{"compound": "COc1cc(/C=C/c2cc(/C=C/c3ccc(O)c(OC)c3)n(-c3ccccc3)n2)ccc1O", "value": "4.1 µM"}
{"compound": "O=c1oc2ccc(F)cc2c(=O)n1-c1ccc(F)cc1F", "value": "49.8 µM"}

Record COc1ccc(C(C#N)NNC(=O)c2ccccc2O)cc1OC (centres undefined) has HT29 colon TGI equal to > 100 µM

Record COCOC1/C=C/CCCCC2=C(C)C=C(C1)O2 (centres undefined) has HT29 colon TGI equal to > 100 µM

Record CC1(C)OCC(COC(=O)C=[N+]=[N-])O1 (centres undefined) has HT29 colon TGI equal to > 100 µM

Record OCc1ccc2[n+](c1)CCC1c3ccccc3NC21 (centres undefined) has HT29 colon TGI equal to > 300 µM

Record `Cc1ccc2c(c1)C(=O)/C(=C/c1ncc([N+](=O)[O-])n1C)O2` has HT29 colon TGI equal to 3.36 µM

Record Cc1ccc(C)c(NC(=O)CC/C(=N\NC(=O)C(=O)NN)C(C)C(=O)c2ccc(O)cc2)c1 (centres undefined) has HT29 colon TGI equal to > 100 µM

---

Test system: A498 renal
Test: NCI tumour cell line growth inhibition, 48 h
Measured TGI accompanies every entry in the list below.

{"compound": "O=C(O)CCCCC(CCSCc1ccccc1)SCc1ccccc1 (stereo unspecified)", "value": "> 96.7 µM"}
{"compound": "COC(=O)CCCCN=Cc1c(O)c(O)c(C(C)C)c2cc(C)c(-c3c(C)cc4c(C(C)C)c(O)c(O)c(C=NCCCCC(=O)OC)c4c3O)c(O)c12", "value": "> 32.5 µM"}
{"compound": "S=C(N/N=C\\C=N/NC(=S)N1CCCCC1)N1CCCCC1", "value": "> 100 µM"}
{"compound": "Cn1c(N2NC(=O)C(N=Nc3ccc(S(N)(=O)=O)cc3)C2=O)nc(-c2ccco2)c(C#N)c1=O (stereo unspecified)", "value": "> 50 µM"}
{"compound": "COC(=O)C1(C(=O)OC)CC2=C(S(=O)(=O)c3ccccc3)C[C@H](S(=O)(=O)c3ccccc3)[C@H]2C1", "value": "> 100 µM"}

Here's the next entry for you.
Lab note: measured TGI of CN1C(=O)N(c2ccccc2)C2(CCN(CC3COc4ccccc4O3)CC2)C1=O (stereo unspecified) was > 100 µM
